Experiment: Plasma concentrations of daidzein, genistein and equol after soy extract (LC/MS/MS)
Details: human, plasma, oral, 4 capsules, Tmax for the first peak, first of double peaks in plasma after soy extract
MEASURED ATTRIBUTE: Tmax

`O=c1c(-c2ccc(O)cc2)coc2cc(O)ccc12` has a reported Tmax of 2 to 4 h

###

Test: clinical
Details: human, in vivo, po, time of peak plasma concentration
MEASURED ATTRIBUTE: Tmax (h)
Just the number in h, nothing appended.

`Oc1ccc([C@H]2COc3cc(O)ccc3C2)cc1` has a reported Tmax of 24

###

Assay: Plasma concentrations of daidzein, genistein and equol after soy extract (LC/MS/MS)
Conditions: human, in vivo, 4 capsules, Tmax for the first peak, first of double peaks in plasma after soy extract
Protocol: The study was a randomized, single-blinded (the participants were informed that they could receive different doses of alcohol in the two sessions), and crossover clinical trial. Subjects participated in two different experimental sessions separated by at least 3 days. […] Ethanol was determined in blood (DRI® Ethyl Alcohol Assay, Thermo Fisher, Fremont, CA, United States) and breath (Alcotest, Dräger, Germany).
MEASURED ATTRIBUTE: Tmax

`O=c1c(-c2ccc(O)cc2)coc2cc(O)cc(O)c12` has a reported Tmax of 2 to 4 h
